Each item that follows carries a reported IC50.
tested on: Recombinant ROCK2 (amino acids 5-554) (Homo sapiens, UniProt O75116)
Construct: ROCK2 (amino acids 5-554); by word order, ROCK2 from SignalChem
Sequence (O75116 5-554): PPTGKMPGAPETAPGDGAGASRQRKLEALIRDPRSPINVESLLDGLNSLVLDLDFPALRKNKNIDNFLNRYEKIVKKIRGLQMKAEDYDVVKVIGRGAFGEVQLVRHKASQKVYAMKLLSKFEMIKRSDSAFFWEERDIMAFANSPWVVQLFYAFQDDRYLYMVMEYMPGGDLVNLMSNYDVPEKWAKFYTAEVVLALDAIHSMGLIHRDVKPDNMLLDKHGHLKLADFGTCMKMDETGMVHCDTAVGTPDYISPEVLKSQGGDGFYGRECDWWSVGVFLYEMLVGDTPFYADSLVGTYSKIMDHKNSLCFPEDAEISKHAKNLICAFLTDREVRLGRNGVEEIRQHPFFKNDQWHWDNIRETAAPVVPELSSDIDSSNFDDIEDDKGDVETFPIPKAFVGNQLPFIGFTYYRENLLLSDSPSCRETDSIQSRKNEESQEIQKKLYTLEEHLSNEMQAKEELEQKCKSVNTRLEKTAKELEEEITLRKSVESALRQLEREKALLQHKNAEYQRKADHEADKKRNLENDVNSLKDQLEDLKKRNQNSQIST
protocol summary: ROCK inhibition assay, LANCE Ultra TR-FRET kinase assay (ROCK2)
run parameters: 4 μM ATP, 50 nM ULight-CREBtide substrate

| compound | IC50 |
| --- | --- |
| [2H]C([2H])([2H])NC(=O)c1cccc(Cn2cnc3cc(-c4cn[nH]c4C(F)F)ccc3c2=O)c1 [Compound 392] | < 10 nM |
| Nc1cc(-c2ccc3c(=O)n(Cc4cccc(C(=O)NCCc5ccccn5)c4)ccc3c2)ccn1 [Compound 186] | < 10 nM |
| Cn1nccc1-c1ccc2c(=O)n(Cc3cccc(C(=O)Nc4nc5c(s4)CCNC5)c3)ccc2c1 [Compound 122] | < 10 nM |
| Cc1n[nH]cc1-c1ccc2c(=O)n(Cc3cccc(C(=O)Nc4cccc(OC(F)(F)F)c4)c3)ccc2c1 [Compound 35] | 100 to 500 nM |
| Cc1nocc1-c1ccc2c(=O)n(Cc3cc(F)cc(C(=O)N[C@H]4CC[C@@H](O)CC4)c3)ccc2c1 [Compound 140] | 100 to 500 nM |
| N#Cc1cccc(C(CN)n2cnc3cc(-c4ccnc(N)c4)ccc3c2=O)c1 (stereo not shown) [Compound 501] | 100 to 500 nM |
| Cc1nocc1-c1ccc2c(=O)n(Cc3cccc(NC(=O)c4ccc(F)cc4)c3)ccc2c1 [Compound 349] | 10 to 100 nM |

---

tested on: Recombinant ROCK1 (amino acids 1-477) (Homo sapiens)
Construct: Recombinant ROCK1 (amino acids 1-477); by word order, ROCK1 from Carna Biosciences
Sequence (Q13464 1-477): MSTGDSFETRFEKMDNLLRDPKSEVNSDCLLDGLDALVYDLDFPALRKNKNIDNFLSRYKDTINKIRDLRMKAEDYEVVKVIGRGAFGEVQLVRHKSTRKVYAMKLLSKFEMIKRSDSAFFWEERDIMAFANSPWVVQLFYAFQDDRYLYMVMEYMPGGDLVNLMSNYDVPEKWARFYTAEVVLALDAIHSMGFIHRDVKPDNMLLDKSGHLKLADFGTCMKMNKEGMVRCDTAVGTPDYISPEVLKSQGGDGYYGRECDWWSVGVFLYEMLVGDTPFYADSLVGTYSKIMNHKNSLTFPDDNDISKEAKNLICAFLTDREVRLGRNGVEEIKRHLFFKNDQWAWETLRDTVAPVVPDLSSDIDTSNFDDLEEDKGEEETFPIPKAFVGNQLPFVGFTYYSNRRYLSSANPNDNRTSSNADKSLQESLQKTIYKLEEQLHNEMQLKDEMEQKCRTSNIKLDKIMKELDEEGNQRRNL
protocol summary: ROCK inhibition assay, LANCE Ultra TR-FRET kinase assay (ROCK1)
run parameters: 1 μM ATP, 50 nM ULight-CREBtide substrate
parameter measured: IC50

| compound | parameter measured | observed measurement |
| --- | --- | --- |
| CNC(=O)c1cc(F)cc([C@@H](C)n2cnc3cc(-c4cn[nH]c4C(F)F)ccc3c2=O)c1 | IC50 | 11 to 100 nM |
| CS(=O)(=O)Nc1cccc(CNC(=O)c2cccc(Cn3cnc4cc(-c5cn[nH]c5C(F)F)ccc4c3=O)c2)c1 | IC50 | 101 to 500 nM |
| Cc1nocc1-c1ccc2c(=O)n(Cc3cccc(C(=O)NC4CCN(C5COC5)CC4)c3)ccc2c1 | IC50 | 101 to 500 nM |
| COc1cccc(C(CO)n2cnc3cc(-c4cn[nH]c4C(F)(F)F)ccc3c2=O)c1 (stereo not shown) | IC50 | 11 to 100 nM |
| O=C(NCC1CCOCC1)c1cc(F)cc(Cn2ccc3cc(-c4c[nH]nc4C(F)F)ncc3c2=O)c1 | IC50 | 11 to 100 nM |
| CC(C)C(=O)Nc1cccc(Cn2ccc3cc(-c4c[nH]nc4C(F)(F)F)ccc3c2=O)c1 | IC50 | 11 to 100 nM |
| Cn1nccc1-c1ccc2c(=O)n(Cc3cccc(C(=O)NCC4COC4)c3)cnc2c1 | IC50 | 11 to 100 nM |
| COc1cccc([C@@H](CO)N2CNc3cc(-c4ccncc4)ccc3C2=O)c1 | IC50 | > 501 nM |
| COc1cccc(C(C)n2ccc3cc(-c4c[nH]nc4Cl)ccc3c2=O)c1 (stereo not shown) | IC50 | < 10 nM |
| CNC(=O)c1cccc([C@@H](C)n2cnc3cc(-c4ccnc(N)c4)ccc3c2=O)c1 | IC50 | 101 to 500 nM |
| Cc1nocc1-c1ccc2c(=O)n(Cc3cccc(C(=O)Nc4ccc5c(c4)CCN(C)C5)c3)ccc2c1 | IC50 | < 10 nM |
| C[C@H](c1cccc(C(=O)NC2CCN(C)CC2)c1)n1cnc2cc(-c3cn[nH]c3Cl)ccc2c1=O | IC50 | < 10 nM |
| CNC(=O)c1cccc(Cn2cc(C(C)O)c3cc(-c4conc4C)ccc3c2=O)c1 (stereo not shown) | IC50 | 11 to 100 nM |
| CNC(=O)c1cccc(Cn2ccc3cc(-c4cnnn4C)ccc3c2=O)c1 | IC50 | > 501 nM |
| Cc1nocc1-c1ccc2c(=O)n(Cc3cccc(C(=O)NCC4CCN(CC(F)(F)F)CC4)c3)ccc2c1 | IC50 | 101 to 500 nM |
| Cc1nocc1-c1ccc2c(=O)n(Cc3cccc(NC(=O)c4ccc(F)cc4)c3)ccc2c1 | IC50 | 11 to 100 nM |

src = patent US12064426B2
